Data provenance: paper PMC12747932

Target: human WDR5 seven tandem WD-40 domain (residues 24–334) (human, UniProt P61964 24-334)
Assay: ITC; peptide (approximately 1 mM) titrated into protein (0.05 mM), 20°C, Buffer E (20 mM Tris-HCl, 200 mM NaCl, pH 7.5), single binding site model, duplicate
Details: both partners purified
Exercise: for every item that follows, state its recorded Kd.
Write down the numeric answer in µM and omit the unit.

Measured Kd of GSARARPSQ (also called wild-type Kif2A; source: synthetic peptide (GenScript)) [Kif2A 114–122 peptide] : 0.78

Measured Kd of GSARARPGQ (also called Kif2A^S121G; source: synthetic peptide (GenScript)) [Kif2A 114–122 (S121G) peptide] : 3.72

Measured Kd of GSARARP (also called truncated Kif2A; source: synthetic peptide (GenScript)) [Kif2A 114–120 peptide] : 6.71
